Entries annotated with measured pIC50
# Test system: Plasmodium falciparum
# protocol_summary: In vitro inhibitory concentration against chloroquine-resistant Plasmodium falciparum FcB1
# Format: functional, organism-based
pIC50: −log10 of the molar value.

compound | pIC50
C[C@@H]1CC[C@H]2C(CNCCN)=C(C(F)(F)F)O[C@@H]3O[C@]4(C)CCC1[C@]32OO4 (stereo partly drawn) | 8.92
C=CCOCC1=C(C(F)(F)F)O[C@@H]2OC3(C)CC[C@H]4[C@H](C)CC[C@@H]1[C@@]24OO3 (single isomer, unassigned) | 8.22
CNCC1=C(C(F)(F)F)O[C@@H]2OC3(C)CC[C@H]4[C@H](C)CC[C@@H]1[C@@]24OO3 (single isomer, unassigned) | 8.04
CC(=O)OCC1=C(C(F)(F)F)O[C@@H]2OC3(C)CC[C@H]4[C@H](C)CC[C@@H]1[C@@]24OO3 (single isomer, unassigned) | 8.77
C[C@@H]1CC[C@H]2C(CN)=C(C(F)(F)F)O[C@@H]3OC4(C)CC[C@@H]1[C@]32OO4 (single isomer, unassigned) | 8.36
C[C@@H]1CC[C@H]2C(CN=[N+]=[N-])=C(C(F)(F)F)O[C@@H]3OC4(C)CC[C@@H]1[C@]32OO4 (single isomer, unassigned) | 8.00
CC1=C(C(F)(F)F)O[C@@H]2OC3(C)CC[C@H]4[C@H](C)CC[C@@H]1[C@@]24OO3 (single isomer, unassigned) | 8.22
C[C@@H]1CC[C@H]2C(COCCO)=C(C(F)(F)F)O[C@@H]3OC4(C)CC[C@@H]1[C@]32OO4 (single isomer, unassigned) | 8.62
C[C@@H]1CC[C@H]2C(CN3CCOCC3)=C(C(F)(F)F)O[C@@H]3OC4(C)CCC1[C@]32OO4 (single isomer, unassigned) | 8.51
CO[C@H]1O[C@@H]2O[C@@]3(C)CC[C@H]4[C@H](C)CC[C@@H]([C@H]1C)[C@@]24OO3 | 8.46
Cc1ccc(S(=O)(=O)NCC2=C(C(F)(F)F)O[C@@H]3OC4(C)CC[C@H]5[C@H](C)CC[C@@H]2[C@@]35OO4)cc1 (single isomer, unassigned) | 7.72
C[C@@H]1CC[C@H]2C(CNS(C)(=O)=O)=C(C(F)(F)F)O[C@@H]3OC4(C)CC[C@@H]1[C@]32OO4 (single isomer, unassigned) | 7.70
CC1=CO[C@@H]2OC3(C)CC[C@H]4[C@H](C)CC[C@@H]1[C@@]24OO3 (single isomer, unassigned) [ANHYDRODIHYDROARTEMISININ] | 7.70

----------
# Tested on: Mus musculus
# protocol_summary: In vivo effective dose was evaluated against Plasmodium berghei N by sub cutaneous administration in mice (Mus musculus)
# Assay type: functional

molecule | ED50
C[C@H]1[C@H](OC(=O)CCC(=O)O)O[C@@H]2O[C@@]3(C)CC[C@H]4[C@H](C)CC[C@@H]1[C@@]24OO3 [ARTESUNATE] | 2.8 mg/kg
CCOCC1=C(C(F)(F)F)O[C@@H]2OC3(C)CC[C@H]4[C@H](C)CC[C@@H]1[C@@]24OO3 (single isomer, unassigned) | < 10 mg/kg
C[C@@H]1CC[C@H]2C(CN3CCN(CCO)CC3)=C(C(F)(F)F)O[C@@H]3OC4(C)CC[C@@H]1[C@]32OO4 (single isomer, unassigned) | < 10 mg/kg
CCNCC1=C(C(F)(F)F)O[C@@H]2O[C@]3(C)CCC4[C@H](C)CC[C@@H]1[C@]42OO3 (some centres undefined) | < 10 mg/kg

These measurements were taken from ChEMBL document CHEMBL1149097.
